Data provenance: the RNAGym collection of RNA variant scans (doi:10.7554/elife.80360)

B1: Hairpin Ribozyme (parent)
chain: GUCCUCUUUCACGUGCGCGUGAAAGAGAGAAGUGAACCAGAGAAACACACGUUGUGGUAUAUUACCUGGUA

Variants of: B1
Experiment: self-cleavage, relative activity (ratio to wild type); higher = more cleavage; co-transcriptional
Label yes (1) when self-cleavage >= 0.2; otherwise no (0).

>>> df
   variant_spec   group
0      U5G G69A  no (0)

Request: State whether the measured self-cleavage reaches 0.2, counting equality as reaching it, for G69U
Result: yes (1)

Request: State whether the measured self-cleavage reaches 0.2, counting equality as reaching it, for U2A C3G
Result: no (0)

Request: State whether the measured self-cleavage reaches 0.2, counting equality as reaching it, for A45U U60C
Result: no (0)

Request: State whether the measured self-cleavage reaches 0.2, counting equality as reaching it, for G21C C50G
Result: yes (1)

Request: State whether the measured self-cleavage reaches 0.2, counting equality as reaching it, for U2A U62C
Result: no (0)

Request: State whether the measured self-cleavage reaches 0.2, counting equality as reaching it, for G13C G68A
Result: yes (1)

Request: State whether the measured self-cleavage reaches 0.2, counting equality as reaching it, for A30C U70A
Result: no (0)

Request: State whether the measured self-cleavage reaches 0.2, counting equality as reaching it, for G1C C66A
Result: yes (1)
